test system: T1, HisFlag-Mlh1;Mlh3 (Saccharomyces cerevisiae (S288c strain …, UniProt P38920;Q12083 1-769;1-715, |))
T1 sequence 1: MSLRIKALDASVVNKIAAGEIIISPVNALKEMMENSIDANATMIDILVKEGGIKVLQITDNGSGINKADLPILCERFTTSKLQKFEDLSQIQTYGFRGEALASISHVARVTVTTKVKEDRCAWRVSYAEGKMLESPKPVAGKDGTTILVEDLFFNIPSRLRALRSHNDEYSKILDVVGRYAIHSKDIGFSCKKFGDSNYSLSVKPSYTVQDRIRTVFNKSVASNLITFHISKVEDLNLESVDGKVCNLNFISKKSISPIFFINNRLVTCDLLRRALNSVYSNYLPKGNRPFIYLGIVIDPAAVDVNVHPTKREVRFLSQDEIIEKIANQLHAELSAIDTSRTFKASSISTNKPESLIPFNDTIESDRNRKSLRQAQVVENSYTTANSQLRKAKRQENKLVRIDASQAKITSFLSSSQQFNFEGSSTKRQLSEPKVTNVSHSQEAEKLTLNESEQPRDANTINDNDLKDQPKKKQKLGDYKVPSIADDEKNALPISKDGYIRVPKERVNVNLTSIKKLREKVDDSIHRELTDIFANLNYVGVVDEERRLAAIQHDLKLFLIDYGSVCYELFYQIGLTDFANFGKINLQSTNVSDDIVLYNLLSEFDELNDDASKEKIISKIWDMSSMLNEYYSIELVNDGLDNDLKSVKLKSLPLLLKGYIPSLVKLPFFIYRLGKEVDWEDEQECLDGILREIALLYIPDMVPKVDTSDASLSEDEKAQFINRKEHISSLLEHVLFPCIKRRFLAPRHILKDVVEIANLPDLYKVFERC
T1 sequence 2: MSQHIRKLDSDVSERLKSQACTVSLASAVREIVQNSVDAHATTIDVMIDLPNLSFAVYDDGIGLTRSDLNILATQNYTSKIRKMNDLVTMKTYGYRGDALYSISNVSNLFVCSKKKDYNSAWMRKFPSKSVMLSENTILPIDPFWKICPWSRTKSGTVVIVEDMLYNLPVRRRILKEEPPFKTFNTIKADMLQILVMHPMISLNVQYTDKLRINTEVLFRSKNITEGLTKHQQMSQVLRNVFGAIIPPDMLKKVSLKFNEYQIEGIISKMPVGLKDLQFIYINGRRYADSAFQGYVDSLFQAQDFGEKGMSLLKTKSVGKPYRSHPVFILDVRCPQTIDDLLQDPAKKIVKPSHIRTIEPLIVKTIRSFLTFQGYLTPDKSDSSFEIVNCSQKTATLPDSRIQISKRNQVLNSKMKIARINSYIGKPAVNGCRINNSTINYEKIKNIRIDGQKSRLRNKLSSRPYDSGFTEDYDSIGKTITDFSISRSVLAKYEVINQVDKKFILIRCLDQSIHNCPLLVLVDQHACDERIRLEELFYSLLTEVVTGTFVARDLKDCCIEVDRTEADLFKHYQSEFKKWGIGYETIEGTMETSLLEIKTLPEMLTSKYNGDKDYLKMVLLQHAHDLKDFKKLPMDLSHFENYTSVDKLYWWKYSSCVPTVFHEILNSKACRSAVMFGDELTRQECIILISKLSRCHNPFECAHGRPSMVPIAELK
assay name: EMSA; Hill slope 2.9 +/- 0.27; 5 mM EDTA; EMSA: 25 mM Tris-HCl pH 7.5, 15% glycerol, 100 mM NaCl, 2 mM DTT, 5 mM EDTA, 1 mg/ml BSA, 30 min 30 C, 1 nM DNA; pull-down: similar, 10% glycerol, 0.2 mg/ml BSA, 0.1% Triton X-100, 4 C
test context: protein: recombinant;recombinant; tags: N-terminal 6xHis-2xFlag;none; copies: 1;1; label: 5'-32P when used as probe
property measured: Kd (nM)
Just the number in nM, nothing appended.

Record request: Kd value, item ssDNA80 (cb099, poly-dT) (ssDNA) DNA: TTTTTTTTTTTTTTTTTTTTTTTTTTTTTTTTTTTTTTTTTTTTTTTTTTTTTTTTTTTTTTTTTTTTTTTTTTTTTTTT
45.9
